Test system: human APJ receptor (Homo sapiens (Human))
Sequence (P35414 whole entry): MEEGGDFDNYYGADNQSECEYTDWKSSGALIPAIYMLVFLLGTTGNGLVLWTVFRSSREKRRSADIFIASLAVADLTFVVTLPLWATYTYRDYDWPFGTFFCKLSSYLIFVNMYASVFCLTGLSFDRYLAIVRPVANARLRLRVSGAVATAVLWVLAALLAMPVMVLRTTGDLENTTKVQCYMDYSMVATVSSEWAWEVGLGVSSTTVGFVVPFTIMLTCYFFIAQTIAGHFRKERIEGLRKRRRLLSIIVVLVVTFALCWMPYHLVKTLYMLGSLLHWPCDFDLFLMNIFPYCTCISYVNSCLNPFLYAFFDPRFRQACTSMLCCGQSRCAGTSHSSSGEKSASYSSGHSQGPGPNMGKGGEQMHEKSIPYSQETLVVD
Test summary: biochemical
Measurement conditions: [35S]GTPγS binding, CHO membranes expressing human APJ receptor; read-out: Activity hAPJ SPA EC50 IP
Reported EC50 values for a set of molecules
Answer in nM, number only, no unit symbol.

Answered examples (3):
COc1nccc(-c2nnc(NS(=O)(=O)[C@@H](C)[C@H](C)c3ncc(F)cn3)n2-c2c(OC)cccc2OC)n1: 2.4
CO[C@H](c1ncc(Cl)cn1)[C@H](C)S(=O)(=O)Nc1nnc(-c2noc3ccccc23)n1C(C)C: 200
COc1cccc(OC)c1-n1c(NS(=O)(=O)[C@@H](C)[C@H](C)c2ncc(Cl)cn2)nnc1-c1n[nH]c2c1CCCC2: 9.1

Let's switch to this molecule now.
Request: Provide measured EC50 on human APJ receptor (Homo sapiens (Human)) for COc1cccc(OC)c1-n1c(NS(=O)(=O)[C@@H](C)[C@H](OC)c2ncc(C)cn2)nnc1-c1noc(C)c1C please.
Result: 18

// data source = patent US11046680B1
